- procedure_summary: RP, Thermo Scientific Hypersil GOLD, 150 × 2.1 mm, 1.9 µm, 0.5 mL/min, estimated dead time 0.66 min; A: water + 0.1% formic acid, pH 3; B: acetonitrile + 0.1% formic acid, pH 3; gradient (min/%B) 0/0 2/0 13/100 15.5/100 19/0
- run_conditions: stereoisomer not certain
Lab note: cut-off is 1 min. Strictly less in LC retention time is Satisfied. Exactly 1 min or more is Not satisfied.

Observe how each entry below is paired with its result.
>  <compound>
O=C(O)C(O)C(O)C(O)C(O)CO (stereo unspecified)

>  <qualitative_label>
Satisfied

$$$$
>  <compound>
CC(=O)NC(Cc1ccccc1)C(=O)O (stereo unspecified)

>  <qualitative_label>
Not satisfied

$$$$
>  <compound>
NC(CCCC(=O)O)C(=O)O (stereo unspecified)

>  <qualitative_label>
Not satisfied

$$$$
>  <compound>
CC12CCC(=O)C=C1CCC1C2CCC2(C)C(OC3OC(C(=O)O)C(O)C(O)C3O)CCC12 (stereo unspecified) [testosterone glucuronide]

>  <qualitative_label>
Not satisfied

$$$$
>  <compound>
OCc1ccccc1O [2-hydroxybenzyl alcohol]

>  <qualitative_label>
Not satisfied

$$$$

## Input A record lists Nc1ncnc2c1ncn2C1OC(CO)C(O)C1O (stereo unspecified) . Is its LC retention time below 1 min?
## Output Not satisfied

## Input A record lists NC(=O)CCC(N)C(=O)O (stereo unspecified) . Is its LC retention time below 1 min?
## Output Satisfied

## Input A record lists CC(=O)NC(C)C(=O)O (stereo unspecified) . Is its LC retention time below 1 min?
## Output Not satisfied

## Input A record lists CCCCCCCCCC(=O)OC(CC(=O)[O-])C[N+](C)(C)C (stereo unspecified) . Is its LC retention time below 1 min?
## Output Not satisfied

## Input A record lists O=C(O)CNC(=O)c1cccc(O)c1 [m-hydroxyhippuric acid] . Is its LC retention time below 1 min?
## Output Not satisfied

## Input A record lists CC(=O)NC(CC(=O)O)C(=O)O (stereo unspecified) . Is its LC retention time below 1 min?
## Output Not satisfied
